Molecular target: T1, Recombinant Hyr1 N-terminus fragment (amino acids 63-350) with N-terminal 6xHis tag (Candida albicans, UniProt Q5AL03 63-350)
T1 sequence: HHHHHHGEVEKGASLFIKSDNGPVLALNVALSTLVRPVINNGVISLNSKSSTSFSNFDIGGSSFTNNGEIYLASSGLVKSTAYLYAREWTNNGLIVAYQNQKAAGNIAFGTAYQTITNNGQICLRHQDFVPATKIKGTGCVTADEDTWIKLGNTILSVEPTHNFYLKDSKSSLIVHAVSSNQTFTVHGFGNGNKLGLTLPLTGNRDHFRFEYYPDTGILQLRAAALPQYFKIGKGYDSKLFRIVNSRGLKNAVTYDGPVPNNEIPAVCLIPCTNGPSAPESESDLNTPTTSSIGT
Assay: ELISA, plate coated with recombinant Hyr1 N-terminus, titrated IgG1
OUTCOME_MEASURE: EC50

Item AB122 (antibody, V domains shown, also called 06-AB-122; anti-Hyr1 mAb AB122) VH: EVQLVQSGGGLAQPGRSLRLSCAASGFGFDDFAMHWVRQPPGKGLEWVSGLTWNGGSIDYAGSVRGRFTISRDNAKNSLFLQMNSLRAEDTALYYCAKGLSGGTMAPFDIWGQGTMVSVSS VL: QAGLTQPPSVSVAPGQTATIPCGGNNIGSKHVHWYQQKPGQAPVAVVYDDSDRPSGVPERFSGSNSGNTATLTISSVEAGDEADYYCQVWDRSSDHFWLFGGGTRLTVL has what recorded EC50? 0.0496 µg/mL

# repeat for AB120 (antibody, V domains shown, also called 06-AB-120; anti-Hyr1 mAb AB120) VH: EVQLVQSGGGLVQPGGSLGLSCAASGFIFTSYAMTWVRQAPGKGLEWVSVITGNVGTSYYADSVKGRFTISRDNSKKTVSLQMNSLRAEDTAIYYCVKTRYDFSSGYYFDDWGQGTLVSVSS VL: DIVMTQSPSSVSASVGDKVTITCRASQGISRWLAWYQQKPGEAPELLIYAASSLQSGVPSRFSGSGSGTDFTLTISSLQPEDFATYYCQQANSFPITFGQGTRLQIK 0.104 µg/mL

# iterate: AB121 (antibody, V domains shown, also called 06-AB-121; anti-Hyr1 mAb AB121) VH: EVQLVESGGTLVQPGGSLRLSCAASGFTFSDYWMNWVRQAPGKGLEWVANIKQDGSEKYYVDSLRGRVTISRDNAQNSVFLQMHSLSVEDTAVYYCARDGYTFGPATTELDHWGRGTLVSVSS VL: QLVLTQPPSVSVSPGQTASITCSGDELRNKYTSWYQQKSGQSPVLVIYQDNNRPSGIPERFSGSQSGDTATLTISGTQAVDEADYYCQAWVSQTLVFGGGTKLTVL 0.0765 µg/mL

// repeat for AB123 (antibody, V domains shown, also called 06-AB-123; anti-Hyr1 mAb AB123) VH: EVQLLESGGGVVQPGRSLRLSCAASGFTFSNYGMHWVRQAPGKGLEWVAVVWFDGSYKYYTDSVKGRFTISRDNSKSTLYLQMNSLRAEDTAVYYCVSPIMTSAFDIWGPGTMVSVSS VL: QLVLTQPPSASGSPGQSVTISCTGTSSDVGGSNFVSWYQHHPGKAPKLMIYEVSQRPSGVPDRFSGSKSGNTASLTVSGLQADDEADYYCSSYAGSVVLFGGGTKLTVL and report 0.0533 µg/mL
